Recorded values, source PubChem BioAssay (NCATS).

Tested on: CP297
Assay: qHTS profiling for inhibitors of Plasmodium falciparum proliferation (AID 504749); also: nearly all actives have a fitted effect of over 60% in size
Details: P. falciparum in erythrocytes, SYBR Green DNA, 72 h; series mostly up to 28.7 µM
Results filed as inconclusive are left out. Calls of active or inactive are those of the source. Calls follow the shape of the dose curve; as a rule, active = well fitted inhibition curve with a large enough effect; inconclusive = small, poorly fitted or top-dose-only effect; inactive = flat fitted curve, though single readings scatter.
Outcomes: yes (active), no (inactive)

COMPOUND: CNC(=O)C(N)CSC(C)C1=C(C)c2cc3[n-]c(cc4nc(cc5[n-]c(cc1n2)c(C)c5CCC(=O)O)C(CCC(=O)O)=C4C)c(C)c3C(C)SCC(N)C(=O)NC.[Fe+2] (stereo not drawn)
CLASSIFICATION: no

COMPOUND: CC(CN1CC(=O)NC(=O)C1)N1CC(=O)NC(=O)C1 (stereo not drawn)
CLASSIFICATION: no

COMPOUND: CC[C@@]1(O)C[C@H](O[C@H]2C[C@@H](N(C)C)[C@@H](O[C@H]3C[C@@H](O)[C@@H](O[C@H]4CCC(=O)[C@@H](C)O4)[C@@H](C)O3)[C@@H](C)O2)c2c(cc3c(c2O)C(=O)c2c(O)cccc2C3=O)[C@H]1C(=O)OC
CLASSIFICATION: yes

COMPOUND: CCC1OC(=O)C[C@@H](O)[C@H](C)[C@@H](OC2OC(C)CC(N(C)C)C2O)[C@@H](CC=O)C[C@@H](C)C(=O)/C=C/[C@]2(C)OC2C1C (stereo partly drawn)
CLASSIFICATION: yes

COMPOUND: NC(C(=O)O)C(O)c1ccc(O)c(O)c1 (stereo not drawn)
CLASSIFICATION: yes

COMPOUND: OCCN1CC(O)C(O)C(O)C1CO (stereo not drawn)
CLASSIFICATION: no

COMPOUND: Oc1cc2cc(CCN3CCN(c4nsc5ccccc45)CC3)c(Cl)cc2[nH]1
CLASSIFICATION: no

COMPOUND: C=C1C(n2cnc3c(=O)[nH]c(N)nc32)C[C@H](O)[C@H]1CO (stereo partly drawn)
CLASSIFICATION: no
